# TEST_DETAILS: SGF digest of 168 nutritive polypeptide library, intact protein by LC-MS/MS
# Format: in vitro ADME
# MEASUREMENT_SETUP: 168 nutritive polypeptide library SGF digest, LC-MS/MS spectral counts
ATTRIBUTE_MEASURED: % Intact Protein at 10 min (%)
Numbers only; they are read as %.

MOLECULE	UNIT_NAME	% Intact Protein at 10 min
SEQID-00591: protein of the 168 nutritive polypeptide library (protein, listed as Saccharomyces cerevisiae, source: /note="strain ATCC 204508 / S288c", protein of the 168 nutritive polypeptide library) MLNRCISRNTRLPVNLRIASRFYSDGPLGGAGPGNPQDIFIKRERAKEDYYARQQEREQLAHVKEQLKEHKKKLENLENKINNLSK	%	20

Query: So what's the measured % Intact Protein at 10 min for this one? SEQID-00536: protein of the 168 nutritive polypeptide library (protein, listed as Solanum lycopersicum) MEEEKHHHHHLFHHKDKAEEGPVDYEKEIKHHKHLEQIGKLGTVAAGAYALHEKHEAKKDPEHAHKHKIEEEIAAAAAVGAGGFAFHEHHEKKDAKKEEKKAEGGHHHLF
Reply: 11.8

Query: So what's the measured % Intact Protein at 10 min for this one? SEQID-00634: protein of the 168 nutritive polypeptide library (protein, listed as Saccharomyces cerevisiae, source: /note="strain ATCC 204508 / S288c", protein of the 168 nutritive polypeptide library) MPPKQQLSKAAKAAAALAGGKKSKKKWSKKSMKDRAQHAVILDQEKYDRILKEVPTYRYVSVSVLVDRLKIGGSLARIALRHLEKEGIIKPISKHSKQAIYTRATASE
Reply: 36.8

Reference source for all entries: patent US20160228506A1
